Origin of the recorded values: ChEMBL document CHEMBL1154336

test-system: UniProtKB O43193
Sequence (O43193 whole entry): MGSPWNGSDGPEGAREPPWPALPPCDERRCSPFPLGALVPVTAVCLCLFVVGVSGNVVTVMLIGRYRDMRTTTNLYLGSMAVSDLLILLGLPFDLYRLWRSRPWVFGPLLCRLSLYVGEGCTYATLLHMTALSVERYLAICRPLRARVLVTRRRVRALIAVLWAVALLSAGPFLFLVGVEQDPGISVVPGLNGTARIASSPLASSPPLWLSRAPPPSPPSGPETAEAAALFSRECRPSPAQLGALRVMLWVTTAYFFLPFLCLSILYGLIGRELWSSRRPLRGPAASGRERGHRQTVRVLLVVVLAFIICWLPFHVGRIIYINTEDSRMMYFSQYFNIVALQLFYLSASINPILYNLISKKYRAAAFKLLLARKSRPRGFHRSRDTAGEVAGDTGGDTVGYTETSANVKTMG
experiment-description: Agonist activity at human recombinant motilin receptor expressed in CHO cells by FLIPR assay
measurement-label: EC50 (nM)

>  <cpd-smiles>
O=S(=O)(Cc1ccc2c(c1)CCNCC2)c1ccc(N2CCCCC2)nc1

>  <EC50 [nM]>
63.1

$$$$
>  <cpd-smiles>
O=S(=O)(Nc1ccc2c(c1)CCN(Cc1cc[nH]n1)CC2)c1ccc(-c2ccccn2)s1

>  <EC50 [nM]>
7.94

$$$$
>  <cpd-smiles>
O=S(=O)(Cc1ccc2c(c1)CCNCC2)c1ccc(-c2ccc(F)cc2)nc1

>  <EC50 [nM]>
5.01

$$$$
>  <cpd-smiles>
CCCCc1ccc(S(=O)(=O)Nc2ccc3c(c2)CCN(Cc2cccs2)CC3)cc1

>  <EC50 [nM]>
2510

$$$$
>  <cpd-smiles>
CCCCc1ccc(S(=O)(=O)Nc2ccc3c(c2)CCN(Cc2ccc(NC(C)=O)s2)CC3)cc1

>  <EC50 [nM]>
50.1

$$$$

[P] O=S(=O)(Cc1ccc2c(c1)CCNCC2)c1ccc(-c2ccc(Cl)cc2)nc1
[Q] O=S(=O)(Cc1ccc2c(c1)CCNCC2)c1ccc(N2CCOCC2)nc1
QUERY: // compare: P vs Q , metric EC50, want the smaller Record your answer as the label of the chosen record.
RESULT: P
(P: 7.94 nM, Q: 501 nM)

---

test-system: Cytochrome P450 1A2 (Homo sapiens, UniProt P05177)
Sequence (P05177 whole entry): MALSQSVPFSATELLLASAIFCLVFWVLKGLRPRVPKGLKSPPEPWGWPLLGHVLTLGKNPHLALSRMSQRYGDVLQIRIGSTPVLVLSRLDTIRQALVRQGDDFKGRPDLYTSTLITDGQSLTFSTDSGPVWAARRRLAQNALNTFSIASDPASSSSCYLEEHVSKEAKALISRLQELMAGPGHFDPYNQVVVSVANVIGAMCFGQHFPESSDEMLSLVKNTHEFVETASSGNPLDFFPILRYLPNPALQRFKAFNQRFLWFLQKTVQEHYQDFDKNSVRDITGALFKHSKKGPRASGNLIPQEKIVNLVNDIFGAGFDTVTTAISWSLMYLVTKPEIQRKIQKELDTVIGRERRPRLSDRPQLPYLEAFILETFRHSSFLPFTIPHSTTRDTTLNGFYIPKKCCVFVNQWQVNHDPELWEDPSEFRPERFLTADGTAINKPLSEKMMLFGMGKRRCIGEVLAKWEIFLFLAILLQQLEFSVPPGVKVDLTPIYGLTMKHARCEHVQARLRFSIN
experiment-description: Inhibition of human recombinant CYP1A2
measurement-label: IC50 (µM)
Please respond with the number in µM and leave the unit unwritten.

QUERY: Need IC50, item CCCCc1ccc(S(=O)(=O)Nc2ccc3c(c2)CCN(Cc2ccn[nH]2)CC3)cc1
RESULT: 29

---

test-system: D(3) dopamine receptor (Homo sapiens)
Sequence (P35462 whole entry): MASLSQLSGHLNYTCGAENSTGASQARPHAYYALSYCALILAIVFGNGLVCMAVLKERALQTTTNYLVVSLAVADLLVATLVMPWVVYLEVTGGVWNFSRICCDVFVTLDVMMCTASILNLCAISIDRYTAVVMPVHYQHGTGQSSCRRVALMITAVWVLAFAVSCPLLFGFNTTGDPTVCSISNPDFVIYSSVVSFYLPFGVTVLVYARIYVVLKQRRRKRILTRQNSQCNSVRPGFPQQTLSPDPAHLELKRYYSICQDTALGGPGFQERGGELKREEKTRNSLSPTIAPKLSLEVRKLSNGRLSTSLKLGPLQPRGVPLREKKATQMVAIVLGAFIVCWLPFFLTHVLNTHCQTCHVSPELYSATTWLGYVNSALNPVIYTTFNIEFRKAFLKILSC
experiment-description: Agonist activity at dopamine D3 receptor
measurement-label: Ki (nM)

>  <cpd-smiles>
CN1CCOc2cc(S(=O)(=O)Nc3ccc4c(c3)CCN(Cc3cc[nH]n3)CC4)ccc21

>  <Ki [nM]>
631

$$$$
>  <cpd-smiles>
O=S(=O)(Nc1ccc2c(c1)CCN(Cc1cc[nH]n1)CC2)c1ccc(-c2ccccn2)s1

>  <Ki [nM]>
200

$$$$
>  <cpd-smiles>
CCCCc1ccc(S(=O)(=O)Nc2ccc3c(c2)CCN(Cc2ccn[nH]2)CC3)cc1

>  <Ki [nM]>
3.98

$$$$

[I] CC(C)Oc1ccc(S(=O)(=O)Nc2ccc3c(c2)CCN(Cc2cc[nH]n2)CC3)cc1
[II] O=S(=O)(Nc1ccc2c(c1)CCN(Cc1cc[nH]n1)CC2)c1ccc(N2CCOCC2)nc1
[III] O=S(=O)(Nc1ccc2c(c1)CCN(Cc1cc[nH]n1)CC2)c1ccc(-c2ccccc2)cc1
[IV] Cc1ccc(S(=O)(=O)Nc2ccc3c(c2)CCN(Cc2ccn[nH]2)CC3)cc1Cl
QUERY: Task for the reader: rank each entry by its Ki, from the minimum upward. Answer with the labels in sequence, matching the requested order.
RESULT: I, III, IV, II

---

Recorded measurements of EC50, one per entry
test-system: Growth hormone secretagogue receptor type 1 (Homo sapiens, UniProt Q92847)
Sequence (Q92847 whole entry): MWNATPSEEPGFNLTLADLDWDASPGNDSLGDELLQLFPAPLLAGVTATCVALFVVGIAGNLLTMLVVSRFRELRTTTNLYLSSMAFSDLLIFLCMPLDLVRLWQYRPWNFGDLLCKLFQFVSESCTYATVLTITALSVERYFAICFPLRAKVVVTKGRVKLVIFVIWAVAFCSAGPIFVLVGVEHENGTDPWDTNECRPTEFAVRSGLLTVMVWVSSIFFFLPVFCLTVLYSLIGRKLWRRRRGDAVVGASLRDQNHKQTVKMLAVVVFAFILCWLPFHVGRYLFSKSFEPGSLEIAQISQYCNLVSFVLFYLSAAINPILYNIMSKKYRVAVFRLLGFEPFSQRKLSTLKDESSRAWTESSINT
experiment-description: Agonist activity at human ghrelin receptor

For orientation, consider the following solved cases.
>  <compound>
Cc1ccc(S(=O)(=O)Nc2ccc3c(c2)CCN(Cc2ccn[nH]2)CC3)cc1Cl

>  <endpoint-value>
79.4 nM

$$$$
>  <compound>
CCCCc1ccc(S(=O)(=O)Nc2ccc3c(c2)CCN(C2CCCC2)CC3)cc1

>  <endpoint-value>
> 1000 nM

$$$$

QUERY: Need EC50, item CN1CCOc2cc(S(=O)(=O)Nc3ccc4c(c3)CCN(Cc3cc[nH]n3)CC4)ccc21
RESULT: > 10000 nM

QUERY: Now the same for CCCCc1ccc(S(=O)(=O)Nc2ccc3c(c2)CCN(Cc2[nH]cnc2C)CC3)cc1
RESULT: 3.98 nM

QUERY: Now the same for CC1(C)CCc2cc(S(=O)(=O)Nc3ccc4c(c3)CCN(Cc3cc[nH]n3)CC4)ccc2O1
RESULT: 631 nM

QUERY: Now the same for O=S(=O)(Cc1ccc2c(c1)CCNCC2)c1ccc(-c2ccc(F)cc2)nc1
RESULT: > 1000 nM

QUERY: Now the same for CC(C)COc1ccc(S(=O)(=O)Cc2ccc3c(c2)CCNCC3)cn1
RESULT: > 1000 nM

QUERY: Now the same for O=S(=O)(Cc1ccc2c(c1)CCNCC2)c1ccc(N2CCCCC2)nc1
RESULT: > 1000 nM

QUERY: Now the same for CC(C)Oc1ccc(S(=O)(=O)Cc2ccc3c(c2)CCNCC3)cn1
RESULT: > 1000 nM

QUERY: Now the same for O=S(=O)(Cc1ccc2c(c1)CCNCC2)c1ccc(-c2ccc(Cl)cc2)cc1
RESULT: > 10000 nM

QUERY: Now the same for CC(C)Oc1ccc(S(=O)(=O)Nc2ccc3c(c2)CCN(Cc2cc[nH]n2)CC3)cc1
RESULT: 158 nM

QUERY: Now the same for CCCCc1ccc(S(=O)(=O)Nc2ccc3c(c2)CCN(Cc2cccc(NC(C)=O)c2)CC3)cc1
RESULT: > 10000 nM

QUERY: Now the same for O=S(=O)(Cc1ccc2c(c1)CCNCC2)c1ccc(-c2ccc(F)cc2)cc1
RESULT: > 10000 nM

QUERY: Now the same for CCCCc1ccc(S(=O)(=O)Nc2ccc3c(c2)CCN(CC2CCOC2)CC3)cc1 (stereo not given)
RESULT: > 1000 nM
